Molecular target: human recombinant LRRK2 protein (Homo sapiens, UniProt Q5S007)
Sequence (Q5S007 whole entry): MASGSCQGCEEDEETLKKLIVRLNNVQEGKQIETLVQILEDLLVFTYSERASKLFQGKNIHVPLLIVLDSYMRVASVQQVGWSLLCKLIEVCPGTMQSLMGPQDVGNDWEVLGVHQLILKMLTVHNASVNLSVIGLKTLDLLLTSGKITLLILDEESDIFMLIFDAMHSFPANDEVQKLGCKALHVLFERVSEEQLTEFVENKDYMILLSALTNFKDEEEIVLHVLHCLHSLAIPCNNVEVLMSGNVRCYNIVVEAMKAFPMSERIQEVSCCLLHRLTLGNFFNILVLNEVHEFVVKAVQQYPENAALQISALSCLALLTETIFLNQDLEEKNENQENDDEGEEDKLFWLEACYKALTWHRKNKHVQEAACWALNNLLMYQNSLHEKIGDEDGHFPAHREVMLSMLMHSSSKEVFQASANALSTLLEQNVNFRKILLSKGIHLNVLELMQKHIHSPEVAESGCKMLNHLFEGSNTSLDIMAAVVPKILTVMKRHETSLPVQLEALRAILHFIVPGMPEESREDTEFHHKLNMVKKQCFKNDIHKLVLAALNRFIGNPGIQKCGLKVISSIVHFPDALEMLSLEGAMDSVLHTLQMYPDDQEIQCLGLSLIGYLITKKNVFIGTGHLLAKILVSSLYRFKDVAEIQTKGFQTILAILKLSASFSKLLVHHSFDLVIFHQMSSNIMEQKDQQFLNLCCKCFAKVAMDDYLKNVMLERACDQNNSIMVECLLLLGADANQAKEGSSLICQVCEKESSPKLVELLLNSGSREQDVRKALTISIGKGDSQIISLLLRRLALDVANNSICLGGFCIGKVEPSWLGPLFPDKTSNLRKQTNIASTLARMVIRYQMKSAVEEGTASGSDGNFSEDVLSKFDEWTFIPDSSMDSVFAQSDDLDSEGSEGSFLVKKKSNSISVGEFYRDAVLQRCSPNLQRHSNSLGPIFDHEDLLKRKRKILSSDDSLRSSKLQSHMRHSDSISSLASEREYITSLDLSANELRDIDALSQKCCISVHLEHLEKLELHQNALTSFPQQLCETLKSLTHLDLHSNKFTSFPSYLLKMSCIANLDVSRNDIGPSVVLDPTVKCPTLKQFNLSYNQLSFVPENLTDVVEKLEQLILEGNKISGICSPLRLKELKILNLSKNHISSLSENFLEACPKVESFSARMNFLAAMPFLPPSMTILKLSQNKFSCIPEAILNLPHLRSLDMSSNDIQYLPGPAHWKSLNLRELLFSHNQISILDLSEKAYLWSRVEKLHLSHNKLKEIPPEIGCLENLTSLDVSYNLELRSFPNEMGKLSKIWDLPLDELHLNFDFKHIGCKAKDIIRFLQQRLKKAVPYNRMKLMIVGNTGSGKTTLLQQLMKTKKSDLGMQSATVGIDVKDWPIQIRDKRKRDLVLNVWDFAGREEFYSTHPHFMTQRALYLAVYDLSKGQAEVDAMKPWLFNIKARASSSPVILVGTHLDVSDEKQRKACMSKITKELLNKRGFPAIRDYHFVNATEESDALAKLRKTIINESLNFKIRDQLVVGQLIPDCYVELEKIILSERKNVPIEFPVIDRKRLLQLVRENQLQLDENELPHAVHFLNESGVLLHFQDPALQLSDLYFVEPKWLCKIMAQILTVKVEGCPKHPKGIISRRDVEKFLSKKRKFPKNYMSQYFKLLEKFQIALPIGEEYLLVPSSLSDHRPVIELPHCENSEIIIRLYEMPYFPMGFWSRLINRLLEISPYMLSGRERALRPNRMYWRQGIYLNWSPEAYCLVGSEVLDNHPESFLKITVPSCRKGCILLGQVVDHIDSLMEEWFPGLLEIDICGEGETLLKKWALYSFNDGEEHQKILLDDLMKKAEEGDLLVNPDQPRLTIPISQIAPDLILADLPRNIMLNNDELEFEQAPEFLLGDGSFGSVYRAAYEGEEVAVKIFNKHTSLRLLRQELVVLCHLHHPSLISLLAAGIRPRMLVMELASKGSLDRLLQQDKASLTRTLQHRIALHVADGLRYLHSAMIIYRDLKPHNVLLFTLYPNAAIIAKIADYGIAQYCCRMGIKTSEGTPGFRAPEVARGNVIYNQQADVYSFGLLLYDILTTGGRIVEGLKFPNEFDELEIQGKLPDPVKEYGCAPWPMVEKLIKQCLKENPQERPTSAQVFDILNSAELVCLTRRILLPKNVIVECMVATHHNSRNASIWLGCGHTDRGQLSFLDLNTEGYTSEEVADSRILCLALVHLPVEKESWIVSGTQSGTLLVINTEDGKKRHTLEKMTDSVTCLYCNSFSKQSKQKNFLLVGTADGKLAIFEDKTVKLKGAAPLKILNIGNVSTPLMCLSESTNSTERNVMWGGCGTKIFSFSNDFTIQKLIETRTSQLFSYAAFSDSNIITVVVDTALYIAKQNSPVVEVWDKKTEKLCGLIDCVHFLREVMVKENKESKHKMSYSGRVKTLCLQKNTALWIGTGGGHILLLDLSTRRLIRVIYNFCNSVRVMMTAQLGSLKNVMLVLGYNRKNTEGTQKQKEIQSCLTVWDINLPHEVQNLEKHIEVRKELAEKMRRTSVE
Test: LRRK2 kinase activity assay (ADP-Glo, LRRKtide peptide)
Conditions: human recombinant LRRK2 wt, LRRKtide peptide and ATP, 1 h at 37° C.
pIC50: −log10 of the molar value.
Each entry below carries its reported pIC50.

Reference set (4 entries):
[
  {
    "Compound": "c1cc2[nH]nc3c2cc1OCCCCOCCn1cc-3cn1 [Example 102]",
    "Endpoint": "pIC50",
    "Reported value": "> 8.00"
  },
  {
    "Compound": "O=C1NCCCOc2ccc3[nH]nc(c3c2)-c2cncc(c2)OC12CC2 [Example 156]",
    "Endpoint": "pIC50",
    "Reported value": "> 7.00"
  },
  {
    "Compound": "c1cc2[nH]nc3c2cc1OCCCCCOCCn1cc-3cn1 [Example 108]",
    "Endpoint": "pIC50",
    "Reported value": "> 8.00"
  },
  {
    "Compound": "C[C@H]1CCn2cc(cn2)-c2n[nH]c3ccc(cc23)OCCCO1 [Example 37]",
    "Endpoint": "pIC50",
    "Reported value": "> 8.00"
  }
]

Task item: For human recombinant LRRK2 protein (Homo sapiens, UniProt Q5S007), give the measured pIC50 of the entry COC1CN(c2cc3nc(n2)O[C@H](C)COCC[C@H](C)Oc2ccc4[nH]nc-3c4c2)C1 [Example 44]
Reply: > 8.00

* * *

Each entry below carries its reported pIC50.
Target: human recombinant LRRK2 protein (Homo sapiens)
Experiment: LRRK2 kinase activity assay (ADP-Glo, LRRKtide peptide)
Details: human recombinant LRRK2 wt, LRRKtide peptide and ATP, 1 h at 37° C.
pIC50: −log10 of the molar value.

[
  {
    "Compound": "CO[C@@H]1CCN(c2cc3nc(n2)O[C@H](C)COCC[C@H](C)Oc2ccc4[nH]nc-3c4c2)C1",
    "pIC50": "> 8.00"
  },
  {
    "Compound": "c1cc2[nH]nc3c2cc1OCCCOCCCCn1cc-3cn1",
    "pIC50": "> 8.00"
  },
  {
    "Compound": "Cc1cc2cc(c1)-c1n[nH]c3ccc(cc13)OCCCNCCO2",
    "pIC50": "> 8.00"
  }
]

Task item: For human recombinant LRRK2 protein (Homo sapiens), give the measured pIC50 of the entry C[C@@H]1CCOCCCn2cc(cn2)-c2n[nH]c3ccc(cc23)O1
Reply: > 8.00

Task item: For human recombinant LRRK2 protein (Homo sapiens), give the measured pIC50 of the entry C[C@@H]1C[C@@H](C)Oc2ccc3[nH]nc(c3c2)-c2cnn(c2)CCCO1
Reply: > 8.00

Task item: For human recombinant LRRK2 protein (Homo sapiens), give the measured pIC50 of the entry C[C@@H]1CCOCCCn2cc(cn2)-c2n[nH]c3cnc(cc23)O1
Reply: > 8.00

Task item: For human recombinant LRRK2 protein (Homo sapiens), give the measured pIC50 of the entry CN1CCCOc2ccc3[nH]nc(c3c2)-c2cncc(c2)OC(C)(C)C1=O
Reply: > 7.00

Task item: For human recombinant LRRK2 protein (Homo sapiens), give the measured pIC50 of the entry CC1CCNC(=O)COc2cncc(c2)-c2n[nH]c3ccc(cc23)O1 (stereo not drawn)
Reply: > 7.00

Task item: For human recombinant LRRK2 protein (Homo sapiens), give the measured pIC50 of the entry C[C@H]1COc2ccc3[nH]nc(c3c2)-c2cc(C#N)n(c2)CCOCCO1
Reply: > 8.00
